# method: Inhibition of wild type PI3K in human Hs-578T cells assessed as reduction in phosphorylation of AKT at Ser473 residue by Western blot analysis
# Format: cell-based

| record smiles | IC50 |
| --- | --- |
| C[C@H]1OC(=O)N(c2nc(-c3cnc(N)nc3C(F)(F)F)cc(N3CCOCC3)n2)[C@H]1CO | 0.027 µM |

* * *

# method: Brain to blood ratio in OF1 mouse at 1 mg/kg, iv measured at 5 mins post dose by LC-MS/MS analysis
# Type: ADME, organism-based
# recorded conditions: brain and blood, read-out: BBR

| compound | Kp at 5 min |
| --- | --- |
| CNC(=O)N(CCO)c1cc(-c2cnc(N)cc2C(F)(F)F)nc(N2CCOCC2)n1 | 0.23 |
| Nc1cc(C(F)(F)F)c(-c2cc(N3CCOCC3)nc(N3CCOCC3)n2)cn1 [BUPARLISIB] | 1.98 |
| C[C@H]1COC(=O)N1c1nc(-c2cnc(N)cc2C(F)(F)F)cc(N2CCOCC2)n1 | 0.11 |
| Nc1cc(C(F)(F)F)c(-c2cc(N3CCOC[C@H]3CO)nc(N3CCOCC3)n2)cn1 | 0.31 |
| Nc1cc(C(F)(F)F)c(-c2cc(NC(CO)Cc3ccccc3)nc(N3CCOCC3)n2)cn1 (racemic) | 1.2 |
| COc1ccc2c(c1)OCCN2c1cc(-c2cnc(N)nc2)nc(N2CCOCC2)n1 | 3.23 |

* * *

# method: Plasma protein binding in beagle dog plasma at 0.3 mg/kg,po or 0.1 mg/kg,iv measured after 4 hrs by rapid equilibrium dialysis method
# Format: ADME, organism-based, Canis lupus familiaris
# recorded conditions: read-out: PPB (converted)
observation type: fraction unbound at 4 h

| record smiles | value |
| --- | --- |
| C[C@H]1OC(=O)N(c2nc(-c3cnc(N)nc3C(F)(F)F)cc(N3CCOCC3)n2)[C@H]1CO | 0.29 |

* * *

# method: AUC(0 to Tlast) in athymic nude mouse xenografted with rat Rat1 cells expressing myr-p110alpha at 20 mg/kg, po measured after 8 days by LC-MS/MS analysis
# Format: ADME, organism-based
# Set-up: dose 20 mg/kg, time 8 day, route po
# recorded conditions: in vivo

| record smiles | AUC(0-t) at 192 h (µM·h) |
| --- | --- |
| C[C@H]1OC(=O)N(c2nc(-c3cnc(N)nc3C(F)(F)F)cc(N3CCOCC3)n2)[C@H]1CO | 26 |

* * *

# method: Solubility of compound in FaSSIF at pH 5.8 measured upto 120 mins by HPLC analysis
# Type: physicochemical

| record smiles | solubility at 2 h, µM |
| --- | --- |
| C[C@H]1OC(=O)N(c2nc(-c3cnc(N)nc3C(F)(F)F)cc(N3CCOCC3)n2)[C@H]1CO | 51 |

* * *

Reported half-life values for a set of compounds
# method: Half life in Sprague-Dawley rat at 3 mg/kg, po or iv measured upto 24 hrs by LC-MS/MS analysis
# Assay type: ADME, organism-based
# recorded conditions: in vivo
observation type: half-life (h)

| record smiles | observation type | value |
| --- | --- | --- |
| C[C@H]1OC(=O)N(c2nc(-c3cnc(N)nc3C(F)(F)F)cc(N3CCOCC3)n2)[C@H]1CO | half-life | 3.3 |
| C[C@H]1COC(=O)N1c1nc(-c2cnc(N)nc2C(F)(F)F)cc(N2CCOCC2)n1 | half-life | 1.2 |
| C[C@@H]1OC(=O)N(c2nc(-c3cnc(N)nc3C(F)(F)F)cc(N3CCOCC3)n2)[C@H]1CO | half-life | 5.2 |

* * *

# test system: Phosphatidylinositol 4,5-bisphosphate 3-kinase catalytic subunit beta isoform (Homo sapiens, UniProt P42338)
# Sequence (P42338 whole entry, canonical isoform): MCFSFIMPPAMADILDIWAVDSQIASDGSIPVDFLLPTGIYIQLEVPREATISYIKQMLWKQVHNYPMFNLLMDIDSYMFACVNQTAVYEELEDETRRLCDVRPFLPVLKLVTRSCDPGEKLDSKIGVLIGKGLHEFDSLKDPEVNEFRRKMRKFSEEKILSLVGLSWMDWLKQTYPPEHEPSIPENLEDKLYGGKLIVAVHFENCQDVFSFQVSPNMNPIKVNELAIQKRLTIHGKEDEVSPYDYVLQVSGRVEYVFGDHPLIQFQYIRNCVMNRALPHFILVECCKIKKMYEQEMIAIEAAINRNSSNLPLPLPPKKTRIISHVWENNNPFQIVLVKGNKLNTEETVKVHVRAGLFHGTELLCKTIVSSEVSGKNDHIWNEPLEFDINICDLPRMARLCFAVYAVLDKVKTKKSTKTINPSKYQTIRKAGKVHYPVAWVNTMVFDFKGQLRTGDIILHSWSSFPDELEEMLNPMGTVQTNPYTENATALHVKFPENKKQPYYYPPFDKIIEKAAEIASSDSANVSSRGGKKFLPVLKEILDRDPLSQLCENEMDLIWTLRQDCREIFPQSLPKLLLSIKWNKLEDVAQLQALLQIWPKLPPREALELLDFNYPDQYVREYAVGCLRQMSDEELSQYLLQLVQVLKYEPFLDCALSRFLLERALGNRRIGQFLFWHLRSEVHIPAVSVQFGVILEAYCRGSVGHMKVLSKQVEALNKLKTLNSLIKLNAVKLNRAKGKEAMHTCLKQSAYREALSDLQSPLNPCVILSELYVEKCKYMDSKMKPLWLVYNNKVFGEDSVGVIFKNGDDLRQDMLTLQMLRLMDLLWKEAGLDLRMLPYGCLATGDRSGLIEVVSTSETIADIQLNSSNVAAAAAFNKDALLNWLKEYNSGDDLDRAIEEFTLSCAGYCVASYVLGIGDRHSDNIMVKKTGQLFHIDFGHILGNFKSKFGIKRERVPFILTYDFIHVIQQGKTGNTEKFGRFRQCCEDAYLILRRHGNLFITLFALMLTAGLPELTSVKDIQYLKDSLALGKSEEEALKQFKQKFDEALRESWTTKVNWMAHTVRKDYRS
# method: Inhibition of PI3Kbeta (unknown origin) using L-alpha-phosphatidylinositol as substrate in presence of ATP by Kinase Glo luminescence assay
observation type: IC50

| record smiles | observation type | value |
| --- | --- | --- |
| C[C@H]1OC(=O)N(c2nc(-c3cnc(N)nc3C(F)(F)F)cc(N3CCOCC3)n2)[C@H]1CO | IC50 | 8.3 nM |

* * *

# method: Tmax in Sprague-Dawley rat at 30 mg/kg, po measured upto 24 hrs by LC-MS/MS analysis
# Assay type: ADME, organism-based
# recorded conditions: in vivo
observation type: Tmax

| record smiles | value |
| --- | --- |
| C[C@H]1OC(=O)N(c2nc(-c3cnc(N)nc3C(F)(F)F)cc(N3CCOCC3)n2)[C@H]1CO | 4 h |

* * *

Form field: logD (one value per entry).
# method: 1-octanol, logP of the compound at pH 7.4
# Format: physicochemical

| record smiles | logD |
| --- | --- |
| Nc1cc(C(F)(F)F)c(-c2cc(N3CCNC3=O)nc(N3CCOCC3)n2)cn1 | 2.6 |
| C[C@H]1OC(=O)N(c2nc(-c3cnc(N)nc3C(F)(F)F)cc(N3CCOCC3)n2)[C@H]1CO | 2 |
| Nc1cc(C(F)(F)F)c(-c2cc(N3CCOC3=O)nc(N3CCOCC3)n2)cn1 | 2.7 |
| Nc1cc(C(F)(F)F)c(-c2cc(N3CCCC3=O)nc(N3CCOCC3)n2)cn1 | 2.1 |

* * *

# test system: Tubulin (Homo sapiens) (UniProt P68371+Q9H4B7+P0DPH7+P68366+Q13509+Q71U36+P04350+Q3ZCM7+P07437+P68363+Q9BQE3+Q6PEY2+Q13885+Q9BVA1+Q9BUF5)
# method: Binding affinity to tubulin in human A2058 cells assessed as condensed DNA score at 5 uM measured after 6 hrs by DiffQuick staining based microscopic analysis
# Assay type: cell-based

| record smiles | Activity |
| --- | --- |
| Nc1cc(C(F)(F)F)c(-c2cc(N3CCOCC3)nc(N3CCOCC3)n2)cn1 | > 12% |
| Nc1cc(C(F)(F)F)c(-c2cc(N3CCN(c4ccccc4)C3=O)nc(N3CCOCC3)n2)cn1 | < 2% |
| Nc1ncc(-c2cc(N3CCOCC3)nc(N3CCOCC3)n2)c(=O)[nH]1 | < 2% |
| Nc1cc(C(F)(F)F)c(-c2cc(N3CCS(=O)(=O)CC3)nc(N3CCOCC3)n2)cn1 | < 2% |
| Nc1cc(C(F)(F)F)c(-c2cc(N3CCCCC3=O)nc(N3CCOCC3)n2)cn1 | < 2% |
| Nc1cc(C(F)(F)F)c(-c2cc(N3CCOCC3)nc(N3CCOCC3)c2)cn1 | 6% |
| COc1ccc2c(c1)OCCN2c1cc(-c2cnc(N)nc2)nc(N2CCOCC2)n1 | > 12% |
| CS(=O)(=O)N1CCN(Cc2cc3nc(-c4cccc5[nH]ncc45)nc(N4CCOCC4)c3s2)CC1 | < 2% |
| Nc1ncc(-c2cc(N3CCOCC3)nc(N3CCOCC3)n2)c(C(F)(F)F)n1 | > 12% |
| Cn1c(=O)n(-c2ccc(C(C)(C)C#N)cc2)c2c3cc(-c4cnc5ccccc5c4)ccc3ncc21 | < 2% |

* * *

# method: cells
# recorded conditions: Rattus norvegicus, Rat1, 1 h
Each entry below carries its recorded IC50.
observation type: IC50 (nM)

| compound | observation type | unit text | value comparator | value |
| --- | --- | --- | --- | --- |
| Nc1cc(C(F)(F)F)c(-c2cc(N3CCCCC3=O)nc(N3CCOCC3)n2)cn1 | IC50 | nM | = | 1040 |
| C[C@@H]1OC(=O)N(c2nc(-c3cnc(N)nc3C(F)(F)F)cc(N3CCOCC3)n2)[C@H]1CO | IC50 | nM | = | 37 |
| Nc1ncc(-c2cc(N3CCCOC3=O)nc(N3CCOCC3)n2)c(C(F)(F)F)n1 | IC50 | nM | = | 152 |
| C[C@H]1OC(=O)N(c2nc(-c3cnc(N)nc3C(F)(F)F)cc(N3CCOCC3)n2)[C@H]1CN1CC[S+]([O-])CC1 | IC50 | nM | > | 10000 |
| C[C@H]1COC(=O)N1c1nc(-c2cnc(N)nc2C(F)(F)F)cc(N2CCOCC2)n1 | IC50 | nM | = | 28 |
| CS(=O)(=O)N1CCN(Cc2cc3nc(-c4cccc5[nH]ncc45)nc(N4CCOCC4)c3s2)CC1 | IC50 | nM | = | 44 |
| Nc1cc(C(F)(F)F)c(-c2cc(NC(CO)Cc3ccccc3)nc(N3CCOCC3)n2)cn1 (racemic) | IC50 | nM | = | 9020 |
| Nc1cc(C(F)(F)F)c(-c2cc(N3CCOC3=O)nc(N3CCOCC3)n2)cn1 | IC50 | nM | = | 1070 |
| C[C@H]1OC(=O)N(c2nc(-c3cnc(N)nc3C(F)(F)F)cc(N3CCOCC3)n2)[C@H]1CC#N | IC50 | nM | = | 100 |
| Nc1ncc(-c2cc(N3CCOCC3)nc(N3C(=O)OC[C@H]3CO)n2)c(C(F)(F)F)n1 | IC50 | nM | = | 180 |
| CNC(=O)N(CCO)c1cc(-c2cnc(N)cc2C(F)(F)F)nc(N2CCOCC2)n1 | IC50 | nM | = | 3660 |
| Nc1cc(C(F)(F)F)c(-c2cc(N3CCN(c4ccccc4)C3=O)nc(N3CCOCC3)n2)cn1 | IC50 | nM | = | 1460 |
| Nc1cc(C(F)(F)F)c(-c2cc(N3CCOCC3)nc(N3CCOCC3)c2)cn1 | IC50 | nM | = | 2830 |
| C[C@]1(CO)COC(=O)N1c1nc(-c2cnc(N)nc2C(F)(F)F)cc(N2CCOCC2)n1 | IC50 | nM | = | 172 |
| Nc1ncc(-c2cc(N3CCOCC3)nc(N3C(=O)OC[C@@H]3CO)n2)c(C(F)(F)F)n1 | IC50 | nM | = | 63 |
| CC1(C)OC(=O)N(c2nc(-c3cnc(N)nc3C(F)(F)F)cc(N3CCOCC3)n2)[C@H]1CO | IC50 | nM | = | 81 |
| Nc1ncc(-c2cc(N3CCOCC3)nc(N3C[C@H](CO)OC3=O)n2)c(C(F)(F)F)n1 | IC50 | nM | = | 111 |
| Nc1cc(C(F)(F)F)c(-c2cc(N3CCOC[C@H]3CO)nc(N3CCOCC3)n2)cn1 | IC50 | nM | = | 8020 |
| Nc1ncc(-c2cc(N3CCOC3=O)nc(N3CCOCC3)n2)c(C(F)(F)F)n1 | IC50 | nM | = | 137 |
| C[C@H]1[C@H](CO)OC(=O)N1c1nc(-c2cnc(N)nc2C(F)(F)F)cc(N2CCOCC2)n1 | IC50 | nM | = | 63 |
| Nc1cc(C(F)(F)F)c(-c2cc(N3CCNC3=O)nc(N3CCOCC3)n2)cn1 | IC50 | nM | = | 431 |
| C[C@H]1OC(=O)N(c2nc(-c3cnc(N)nc3C(F)(F)F)cc(N3CCOCC3)n2)[C@H]1CO | IC50 | nM | = | 26 |
